Where these numbers come from: paper PMC5711770

target: HU (wt, C-terminal His-tag) (Acinetobacter baumannii SK17, UniProt A0ABX6CHP0); assay: BLI; BLI: 30 mM Tris pH 7.5, 100 mM NaCl, 0.02% Tween20, 0.5 mg/ml BSA, 25°C; EMSA: same buffer, 37°C 1 h, 250 ng DNA in 10 µl, 1% agarose in TAE; AFM: 10 mM HEPES pH 7.5, 4 mM MgCl2; conditions: protein: recombinant; chain copies: 2; label: 5'-biotin on strand 1; (only one strand printed)
test readout: pKd
Quick note: pKd means taking -log10 of the concentration in moles per liter.

// returns reported pKd for input biotin-labeled dsDNA (BLI) (dsDNA) DNA 1: ATTAATATTTTCTTAAACTAATTTAAAAT DNA 2: ATTTTAAATTAGTTTAAGAAAATATTAAT
6.46
